The values you see were collected from patent US20260374754A1.

Target: human activated kallikrein enzyme (Homo sapiens, UniProt P03952)
Sequence (P03952 391-638 limits assumed): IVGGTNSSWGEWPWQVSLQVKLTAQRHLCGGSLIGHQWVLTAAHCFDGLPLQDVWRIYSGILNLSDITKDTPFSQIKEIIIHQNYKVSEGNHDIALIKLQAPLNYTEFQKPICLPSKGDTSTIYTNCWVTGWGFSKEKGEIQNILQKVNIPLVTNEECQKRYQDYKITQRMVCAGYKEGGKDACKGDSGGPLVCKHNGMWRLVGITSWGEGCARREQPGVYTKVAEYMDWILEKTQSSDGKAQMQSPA
Sequence (P03952 20-390 partner limits assumed): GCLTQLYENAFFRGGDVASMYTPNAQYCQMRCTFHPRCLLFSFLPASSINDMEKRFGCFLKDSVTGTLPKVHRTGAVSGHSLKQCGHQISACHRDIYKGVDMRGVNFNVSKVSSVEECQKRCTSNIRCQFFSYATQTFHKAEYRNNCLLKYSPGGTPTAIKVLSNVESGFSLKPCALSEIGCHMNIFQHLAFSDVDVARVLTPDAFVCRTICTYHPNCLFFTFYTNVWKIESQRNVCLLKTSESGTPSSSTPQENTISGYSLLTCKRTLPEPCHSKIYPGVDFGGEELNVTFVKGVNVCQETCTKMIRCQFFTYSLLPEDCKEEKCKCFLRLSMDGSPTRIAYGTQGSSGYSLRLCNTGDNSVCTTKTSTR
Experiment: Inhibition of human activated plasma kallikrein, fluorogenic PFR-AMC substrate, 500 pM enzyme format
Assay type: biochemical
Conditions: 500 pM activated kallikrein; 300 μM PFR-AMC; 30 min preincubation; 10 min room temperature; pH 7.5; read-out: Primary Dose Response Assay: Average EC50
pEC50: −log10 of the molar value. Structures can show the parent of a compound that is named as a salt.
experimental.readout: pEC50

What pEC50 appears in the records for this compound with human activated kallikrein enzyme (Homo sapiens, UniProt P03952)? Cc1cc2c(N)nccc2c(C)c1CNc1cc(OCc2ccc(Cn3cccc(C4CC4)c3=O)cc2)ncn1 [Example 303, formic acid salt]
8.00 to 9.00

What pEC50 appears in the records for this compound with human activated kallikrein enzyme (Homo sapiens, UniProt P03952)? Cc1ccc2cc(CNc3cc(NCc4c(C)cc5c(N)nccc5c4C)ncn3)ccc2n1
> 9.00

What pEC50 appears in the records for this compound with human activated kallikrein enzyme (Homo sapiens, UniProt P03952)? Cc1cc2c(N)nccc2c(C)c1CNc1cc(OCc2ccc3ncc(C4CC4)cc3c2)ccn1
8.00 to 9.00

What pEC50 appears in the records for this compound with human activated kallikrein enzyme (Homo sapiens, UniProt P03952)? Cc1cc2c(N)nccc2c(C)c1CNC(=O)c1cnn(Cc2ccc(CC(=O)N3C[C@@H]4[C@@H](CF)[C@@H]4C3)cc2)c1
8.00 to 9.00

----------
Target: plasma kallikrein (Homo sapiens)
Construct: PFR-AMC substrate
Sequence (P03952 20-638): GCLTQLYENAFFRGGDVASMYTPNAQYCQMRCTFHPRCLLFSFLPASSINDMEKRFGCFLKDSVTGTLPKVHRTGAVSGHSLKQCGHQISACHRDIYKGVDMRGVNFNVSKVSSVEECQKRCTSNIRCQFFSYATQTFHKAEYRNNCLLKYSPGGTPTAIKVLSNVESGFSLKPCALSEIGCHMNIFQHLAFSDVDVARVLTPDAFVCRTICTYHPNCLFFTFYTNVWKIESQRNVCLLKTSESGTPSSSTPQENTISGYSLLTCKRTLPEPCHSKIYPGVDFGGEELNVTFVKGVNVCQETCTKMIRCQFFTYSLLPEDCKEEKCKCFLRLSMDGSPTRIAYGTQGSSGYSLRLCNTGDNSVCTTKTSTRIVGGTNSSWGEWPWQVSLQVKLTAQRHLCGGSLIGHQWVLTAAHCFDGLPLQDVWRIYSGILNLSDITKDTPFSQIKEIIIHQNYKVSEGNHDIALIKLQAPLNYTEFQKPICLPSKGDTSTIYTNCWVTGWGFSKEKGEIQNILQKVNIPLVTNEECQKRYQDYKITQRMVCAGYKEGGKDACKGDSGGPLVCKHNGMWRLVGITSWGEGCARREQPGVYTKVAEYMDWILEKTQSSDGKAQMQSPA
Assay: Neat Human Plasma Assay (Fluorogenic Peptide), contact pathway-activated (FXIIa) plasma
Format: biochemical
Conditions: human citrated plasma 78% final; 10 nM human FXIIa; PFR-AMC substrate; 5 minutes; room temperature
Counter-ions that a name gives are not always drawn.
Task for the reader: assign each of the following compounds its reported IC90.

// query IC90 value for entry Cc1cc2c(N)nccc2c(C)c1CNc1cc(OCc2cn3cc(C4CC4)ccc3n2)c(Cl)cn1
> 5 µM

// query IC90 value for entry Cc1cc2c(N)nccc2c(C)c1CNc1cc(SCc2cn3cc(C4CC4)ccc3n2)ncn1
1 to 5 µM

// query IC90 value for entry Cc1cc2c(N)nccc2c(C)c1CNc1cc(OCc2cc3cc(C4CC4)ccn3n2)ncn1
> 5 µM

// query IC90 value for entry Cc1cc2c(N)nccc2c(C)c1CNc1cc(OCc2cc3cc(C4CC4)cc(CC(C)(C)C#N)n3n2)ncn1
1 to 5 µM

// query IC90 value for entry Cc1cc2c(N)nccc2c(C)c1CNc1cc(OCc2cc(C#N)c3ncc(Cl)cc3c2)ncn1
> 5 µM

// query IC90 value for entry Cc1c(CNc2cc(OCc3ccc(Cn4cccn4)cc3)ncn2)ccc2c(N)nccc12
> 5 µM

// query IC90 value for entry Cc1cc2c(N)nccc2c(C)c1CNC(=O)c1ccnc(Cc2cn3cc(C4CC4)ccc3n2)c1
≤ 1 µM

// query IC90 value for entry Cc1cc2c(N)nccc2c(C)c1CNc1cc(NCc2ccc(Cn3cccn3)cc2)ncn1
> 5 µM

// query IC90 value for entry Cc1cc2c(N)nccc2c(C)c1CNc1cc(OCc2ccc3ncc(Cl)cc3c2)ncn1 [Example 373, formic acid salt]
> 5 µM

// query IC90 value for entry Cc1cc2c(N)nccc2c(C)c1CNc1cc(NCc2cn3cc(Cl)ccc3n2)ncn1 [Example 313, formic acid salt]
> 5 µM

// query IC90 value for entry Cc1cc2c(N)nccc2c(C)c1CNC(=O)c1cnn(Cc2ccc(Cn3ccccc3=O)cc2)c1
≤ 1 µM

// query IC90 value for entry Cc1cnc2ccc(Cn3cc(C(=O)NCc4c(C)cc5c(N)nccc5c4C)cn3)cc2c1
≤ 1 µM

// query IC90 value for entry Cc1cc2c(N)nccc2c(C)c1CNc1cc(OCc2ccc3ncc(C4CC4)cc3c2)cnn1
1 to 5 µM

// query IC90 value for entry Cc1cc2c(N)nccc2c(C)c1CNc1cc(OCc2cn3cc(C4CC4)cc(C4(O)COC4)c3n2)ncn1
≤ 1 µM

// query IC90 value for entry Cc1cc2c(N)nccc2c(C)c1CNc1cc(OCc2nc3ccc(C4CC4)nn3n2)ncn1
> 5 µM

// query IC90 value for entry Cc1cc2c(N)nccc2c(C)c1CNc1cc(OCc2cc(C(N)=O)c3ncc(Cl)cc3c2)ncn1
1 to 5 µM
